Reference source for all entries: patent US20190367619A1

Provide the recorded binding signal (nm) for the entries that follow.
# assayedTarget: T1, human galectin-10-His (recombinant human galectin-10 with TEV-cleavable N-terminal His-tag) (human)
# T1 construct: SEC-MALLS: dimer in solution; also called Gal10-His; humanGal10-His
# T1 chain: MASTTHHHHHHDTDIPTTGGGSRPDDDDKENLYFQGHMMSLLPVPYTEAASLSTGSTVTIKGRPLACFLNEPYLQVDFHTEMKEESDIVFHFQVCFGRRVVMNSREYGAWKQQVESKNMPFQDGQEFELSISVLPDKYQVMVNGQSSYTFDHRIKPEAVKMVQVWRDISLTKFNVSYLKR
# assayInfo: BLI tandem on galectin-10-His; competitor: saturating 2F09 mIgG1 (10 ug/mL)
Answers are plain numbers, in nm.

Below are 3 binders. Give each one its binding signal (nm).
1. 6A05 mouse IgG1 (antibody, V domains shown, also called 6A05 mIgG1) VH: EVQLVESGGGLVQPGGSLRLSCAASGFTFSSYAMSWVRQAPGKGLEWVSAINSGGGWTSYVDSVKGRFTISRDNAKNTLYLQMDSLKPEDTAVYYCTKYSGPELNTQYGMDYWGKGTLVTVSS VL: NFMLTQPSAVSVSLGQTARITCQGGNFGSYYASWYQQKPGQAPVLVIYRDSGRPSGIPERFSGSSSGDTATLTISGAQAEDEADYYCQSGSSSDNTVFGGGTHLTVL
2. 6E10 mouse IgG1 (antibody, V domains shown, also called 6E010; 6E10 mIgG1) VH: QLQLVESGGGLVQPGGSLRLSCAASGFTFSSYWMYWVRQAPGKGLEWVSAINTGGGSTYYADSVKGRFTISRDNAKNTLYLQMNSLKPEDTALYYCARAGSGVAGTGYDYWGQGTQVTVSS VL: QPVLNQPSAVSVSLGQTARITCQGGNFGYYYVSWYQQKPGQAPVLVIYRDSGRPSGIPERFSGSSSGDTATLTISGAQAEDEADYYCQSGSSSDNAVFGGGTHLTVL
3. 2F09 mouse IgG1 (antibody, V domains shown, VH on mouse IgG1 heavy chain constant domains (CH1-CH2-CH3), VL on mouse lambda light chain constant domain; also called 2F09 mIgG1) VH: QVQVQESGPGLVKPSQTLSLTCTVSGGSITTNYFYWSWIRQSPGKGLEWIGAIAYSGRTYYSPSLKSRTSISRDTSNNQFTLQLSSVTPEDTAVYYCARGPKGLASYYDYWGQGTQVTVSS VL: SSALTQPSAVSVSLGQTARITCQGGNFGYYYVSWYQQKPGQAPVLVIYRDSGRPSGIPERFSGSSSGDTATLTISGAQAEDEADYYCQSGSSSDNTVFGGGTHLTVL

Result:
0.01
0
0.03

Below are 2 binders. Give each one its binding signal (nm).
1. 2C07 mouse IgG1 (antibody, V domains shown, VH on mouse IgG1 heavy chain constant domains (CH1-CH2-CH3), VL on mouse lambda light chain constant domain; also called 2C07 mIgG1) VH: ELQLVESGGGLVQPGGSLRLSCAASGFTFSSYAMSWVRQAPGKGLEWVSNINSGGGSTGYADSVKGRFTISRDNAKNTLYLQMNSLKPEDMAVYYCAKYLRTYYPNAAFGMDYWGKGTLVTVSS VL: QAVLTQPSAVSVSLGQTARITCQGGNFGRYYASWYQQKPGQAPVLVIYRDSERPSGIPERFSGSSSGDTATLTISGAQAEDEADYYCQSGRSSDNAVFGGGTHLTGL
2. 6F06 mouse IgG1 (antibody, V domains shown, also called 6F06 mIgG1) VH: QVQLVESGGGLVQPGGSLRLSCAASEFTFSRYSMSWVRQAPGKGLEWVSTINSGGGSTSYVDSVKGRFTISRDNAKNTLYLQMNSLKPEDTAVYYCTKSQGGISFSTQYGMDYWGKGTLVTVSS VL: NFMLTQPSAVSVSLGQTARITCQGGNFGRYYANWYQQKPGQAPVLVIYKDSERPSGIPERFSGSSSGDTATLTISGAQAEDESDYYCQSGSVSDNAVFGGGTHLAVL

Result:
[-0.01, 0]
